Assay: Plasma concentration in SCID mouse harboring human PTEN-deficient PC3 cells at 100 mg/kg, po after 7 hrs
Format: ADME, organism-based, PC-3
Design: dose 100 mg/kg, route oral
Readout Label: concentration at 7 h

{"Smiles Entry": "NC(=O)c1sc(N2CCOCC2)nc1CC(=O)N1CCc2cc(F)ccc21", "Readout Label": "concentration at 7 h", "Test Value": "40 nM"}

###

Overview of reported metabolised across a group of compounds:
Assay: Drug metabolism in mouse liver microsomes assessed as compound lability
Format: ADME, Microsome
Conditions Used: liver microsomes, read-out: Drug metabolism
Readout Label: metabolised (%)

{"Compound": "NC(=O)c1sc(N2CCOCC2)nc1CC(=O)N1CCc2c(Cl)cccc21", "Unit Descriptor": "%", "Test Value": 61}
{"Compound": "NC(=O)c1sc(N2CCOCC2)nc1CC(=O)N1CCc2c(Br)cccc21", "Unit Descriptor": "%", "Test Value": 63}
{"Compound": "CC1Cc2c(Cl)cccc2N1C(=O)Cc1nc(N2CCOCC2)sc1C(N)=O (stereo unspecified)", "Unit Descriptor": "%", "Test Value": 70}
{"Compound": "NC(=O)c1sc(N2CCOCC2)nc1CC(=O)N1CCc2ccccc21", "Unit Descriptor": "%", "Test Value": 44}
{"Compound": "CC1Cc2c(Cl)cccc2N1C(=O)Cc1nc(N2CCOCC2)sc1C(=O)O (stereo unspecified)", "Unit Descriptor": "%", "Test Value": 17}
{"Compound": "O=C(O)c1sc(N2CCOCC2)nc1CC(=O)N1CCc2c(Cl)cccc21", "Unit Descriptor": "%", "Test Value": 9}
{"Compound": "NC(=O)c1sc(N2CCOCC2)nc1CC(=O)N1CCc2cc(F)ccc21", "Unit Descriptor": "%", "Test Value": 22}
{"Compound": "O=C(O)c1sc(N2CCOCC2)nc1CC(=O)N1CCc2c(Br)cccc21", "Unit Descriptor": "%", "Test Value": 0}
{"Compound": "CC1Cc2cc(F)ccc2N1C(=O)Cc1nc(N2CCOCC2)sc1C(=O)O (stereo unspecified)", "Unit Descriptor": "%", "Test Value": 3}
{"Compound": "O=C(O)c1sc(N2CCOCC2)nc1CC(=O)N1CCc2cc(F)ccc21", "Unit Descriptor": "%", "Test Value": 1}
{"Compound": "CC1Cc2cc(F)ccc2N1C(=O)Cc1nc(N2CCOCC2)sc1C(N)=O (stereo unspecified)", "Unit Descriptor": "%", "Test Value": 48}

###

Target Or System: Phosphatidylinositol 4,5-bisphosphate 3-kinase catalytic subunit beta isoform (Homo sapiens)
Sequence (P42338 whole entry, canonical isoform): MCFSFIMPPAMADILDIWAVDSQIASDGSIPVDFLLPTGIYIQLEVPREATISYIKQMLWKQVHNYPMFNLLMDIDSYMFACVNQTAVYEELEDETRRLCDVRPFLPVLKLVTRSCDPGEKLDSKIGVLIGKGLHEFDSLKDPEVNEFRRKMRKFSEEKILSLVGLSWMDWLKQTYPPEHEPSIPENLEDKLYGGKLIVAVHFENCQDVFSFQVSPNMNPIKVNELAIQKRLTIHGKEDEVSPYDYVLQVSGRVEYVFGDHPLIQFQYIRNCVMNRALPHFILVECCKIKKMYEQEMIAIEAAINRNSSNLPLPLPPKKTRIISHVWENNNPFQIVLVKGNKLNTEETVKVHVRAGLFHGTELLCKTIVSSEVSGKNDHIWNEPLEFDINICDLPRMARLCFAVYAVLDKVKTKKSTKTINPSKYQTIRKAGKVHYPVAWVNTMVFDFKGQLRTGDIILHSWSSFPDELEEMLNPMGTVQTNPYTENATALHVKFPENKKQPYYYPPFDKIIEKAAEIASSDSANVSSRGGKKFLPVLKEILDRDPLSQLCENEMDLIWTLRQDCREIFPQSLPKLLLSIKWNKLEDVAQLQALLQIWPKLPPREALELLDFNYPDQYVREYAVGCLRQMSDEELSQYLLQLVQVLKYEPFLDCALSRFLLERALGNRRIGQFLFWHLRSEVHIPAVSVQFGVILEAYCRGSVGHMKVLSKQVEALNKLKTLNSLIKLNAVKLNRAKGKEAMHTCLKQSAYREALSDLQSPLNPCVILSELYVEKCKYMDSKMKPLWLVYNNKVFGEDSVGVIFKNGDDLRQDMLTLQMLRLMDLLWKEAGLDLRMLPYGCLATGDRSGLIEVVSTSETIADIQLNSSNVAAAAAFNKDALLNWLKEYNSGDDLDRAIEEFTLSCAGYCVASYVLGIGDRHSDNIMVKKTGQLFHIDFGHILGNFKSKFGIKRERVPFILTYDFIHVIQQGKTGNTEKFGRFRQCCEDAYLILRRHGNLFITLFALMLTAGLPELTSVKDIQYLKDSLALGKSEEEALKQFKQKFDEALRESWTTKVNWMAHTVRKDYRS
Assay: Inhibition of human PI3Kbeta after 15 mins
pIC50: −log10 of the molar value.
I would appreciate it if you labelled entries fulfilled when pIC50 is 7 or higher, otherwise not fulfilled.

{"Compound": "CC1Cc2c(Br)cccc2N1C(=O)Cc1nc(N2CCOCC2)sc1C(=O)O (single isomer, unassigned; enantiomer 1)", "Category Label": "fulfilled"}
{"Compound": "O=C(O)c1sc(N2CCOCC2)nc1CC(=O)N1CCc2ccccc21", "Category Label": "not fulfilled"}
{"Compound": "CC1Cc2c(Cl)cccc2N1C(=O)Cc1nc(N2CCOCC2)sc1C(N)=O (centres undefined)", "Category Label": "fulfilled"}
{"Compound": "NC(=O)c1sc(N2CCOCC2)nc1CC(=O)Nc1ccc(F)c(Cl)c1", "Category Label": "fulfilled"}
{"Compound": "CC1Cc2cc(F)ccc2N1C(=O)Cc1nc(N2CCOCC2)sc1C(N)=O (centres undefined)", "Category Label": "fulfilled"}
{"Compound": "NC(=O)c1sc(N2CCOCC2)nc1CC(=O)N1CCc2c(Cl)cccc21", "Category Label": "fulfilled"}
{"Compound": "CC1Cc2ccccc2N1C(=O)Cc1nc(N2CCOCC2)sc1C(N)=O (racemic)", "Category Label": "not fulfilled"}
